Exercise: state measured TGI for each of the compounds provided.
Test system: HCC-2998 colon
Assay: NCI tumour cell line growth inhibition, 48 h

Check out these entries, answers already filled in.
Compound: Nc1nc(N)c2c(-c3ccccc3)ccnc2n1
Result: > 100 µM
//
Compound: CC(Oc1ccc2c(=O)cc(-c3ccccc3)oc2c1)C(=O)O (stereo not given)
Result: > 100 µM
//
Compound: CCCCCCCC(=O)OC(COC(=O)Cc1ccccc1)COC(=O)C(C)(C)C (stereo not given)
Result: > 100 µM

Each of the following entries comes with a recorded value; kindly state TGI for each.
1. CSc1nc(SC)c2c(C)c(Br)[nH]c2n1
2. Cc1ccc(-c2nc3ccccc3c(=O)n2NC2OC(CO)C(O)C(O)C2O)cc1 (stereo not given)
3. Cc1cc(=O)n2c(cc3cccccc32)n1
4. CCCCCCCCC1C(C)c2c([nH]c3ccccc23)C2C(=O)N(c3ccccc3)C(=O)C21 (stereo not given)
5. O=S1(=O)OCCOS(=O)(=O)C1(Br)Br
6. O=C1CS(=O)c2ccccc2N1 (stereo not given)
7. O=C(Nc1ccccc1)c1cc2cc(CCl)ccc2oc1=O

output:
1: > 100 µM; 2: > 100 µM; 3: > 100 µM; 4: 25.6 µM; 5: > 100 µM; 6: > 100 µM; 7: > 100 µM

Each of the following entries comes with a recorded value; kindly state TGI for each.
1. c1ccc(N2CCN(CCCN3CCc4c([nH]c5ccccc45)C3c3cccnc3)CC2)cc1 (stereo not given)
2. CC(C)OP(=O)(OC(C)C)/C(=N/Nc1ccc([N+](=O)[O-])cc1)NNC(=O)c1ccccc1
3. CC1=C(C(=O)Nc2ccccc2C)C(c2ccccc2O)C(C(=O)Nc2ccccc2C)=C(C)N1

output:
1: > 100 µM; 2: 70.4 µM; 3: 29.6 µM

Each of the following entries comes with a recorded value; kindly state TGI for each.
1. COc1ccc(OC)c(CCc2ccccc2CC(=O)O)c1
2. CCn1c(=O)c2c3ccc(O)cc3[nH]c2c2ccc(O)cc21

output:
1. > 100 µM
2. > 100 µM

Each of the following entries comes with a recorded value; kindly state TGI for each.
1. O=C1Nc2n[nH]c(=S)n2NC12c1ccccc1-c1ccccc12
2. NCCCC(N)(C(=O)O)C(F)F (stereo not given)
3. CCCCCCCCCCCCCC(=O)NO
4. COC(=O)/C=C(C)/C=C/c1c(C)c(C(C)=O)c(C)n1C

output:
> 100 µM
> 5000 µM
28.7 µM
> 100 µM

input: Fill blank: measured TGI of the compound COc1cc(Cn2c3ccccc3c3cc(C)cc(OC)c32)cc2c1[nH]c1ccccc12 is ____.
output: > 25 µM

----------
Test system: 786-0 renal
Assay: NCI tumour cell line growth inhibition, 48 h; in the data active = GI50 below about 0.43 µM; inactive = the rest
Select the matching outcome among true = active, false = inactive

input: Each compound tested received a call. Report the one for O=C1/C=C/[C@@H](O)[C@@H]2C[C@@H](O)C[C@H]2/C=C/CCC[C@H](CCc2ccc(NC(=S)Nc3ccc4c(c3)C(=O)OC43c4ccc(O)cc4Oc4cc(O)ccc43)cc2)O1 .
output: true

input: Note, next up: COc1ccc(C(=O)/C=C/c2c(C(F)(F)F)nc3ccccn23)cc1OC
output: false

input: Note, next up: CN(C)C[C@@H]1CCn2cc(c3ccccc32)C2=C(C(=O)NC2=O)c2cn(c3ccccc23)CCO1
output: false

input: Note, next up: O=C(CS(=O)c1nc2ccccc2nc1-c1ccccc1)Nc1ccc(Cl)cc1 (centres undefined)
output: false

Just for reference, PubChem BioAssay (NCI) is where these values come from.
